This collection of values is drawn from ChEMBL document CHEMBL2021845.

Assay: Cytotoxicity against human lymphocytes assessed as cell viability at 20 uM after 24 hrs by XTT assay relative to untreated control
Type: cell-based, Lymphocyte
Conditions: read-out: Activity

COMPOUND	viability at 24 h, 20 µM [%]
COc1cccc2c1C(=O)c1c(O)c3c(c(O)c1C2=O)C[C@@](O)(C(=O)CO)C[C@@H]3O[C@H]1C[C@H](N)[C@H](O)[C@H](C)O1 [DOXORUBICIN]	100
O=C1c2cccc(O)c2C(=O)c2c(O)cc(CO)cc21 [ALOE-EMODIN]	77

###

Tested on: OVCAR-3
Experiment: Cytotoxicity against human OVCAR3 cells after 24 hrs by XTT assay
Type: functional, cell-based
Conditions: OVCAR-3, 24 h
Below, each entry is listed alongside its reported IC50.
REPORTED ENDPOINT: IC50 (µM)

RECORD SMILES	TARGET OR SYSTEM	CMP	MEASURED RESULT
C[C@H]1O[C@@H](OCc2cc(O)c3c(c2)C(=O)c2cccc(O)c2C3=O)C[C@H](N)[C@@H]1O	OVCAR-3	>	20
C[C@@H]1O[C@@H](OCc2cc(O)c3c(c2)C(=O)c2cccc(O)c2C3=O)C[C@H](N)[C@H]1O	OVCAR-3	=	5.2
COc1cccc2c1C(=O)c1c(O)c3c(c(O)c1C2=O)C[C@@](O)(C(=O)CO)C[C@@H]3O[C@H]1C[C@H](N)[C@H](O)[C@H](C)O1	OVCAR-3	>	20
O=C1c2cccc(O)c2C(=O)c2c(O)cc(CO)cc21	OVCAR-3	>	20
C[C@H]1O[C@@H](OCc2cc(O)c3c(c2)C(=O)c2cccc(O)c2C3=O)C[C@@H](N)[C@@H]1O	OVCAR-3	=	6.4
C[C@@H]1O[C@@H](OCc2cc(O)c3c(c2)C(=O)c2cccc(O)c2C3=O)C[C@@H](N)[C@H]1O	OVCAR-3	=	15.7
